# Tested on: CAKI-1
# assay.protocol: NCI tumour cell line growth inhibition, 48 h
Calls of active or inactive are those of the source. No stated cut-off is given here; in the data, active = GI50 up to about 1.1 µM and inactive = higher.
Recorded GI50, one value per entry.

In the examples that follow, each entry is paired with its recorded GI50.
# compound, tested.target, GI50
records = [
    ("O=C1C=CC(=O)C2C1Cc1ccccc1C2c1ccccc1 (stereo unspecified)", "CAKI-1", "59 µM (inactive)"),
    ("Nc1nncs1", "CAKI-1", "1760 µM (inactive)"),
    ("CCOC(=O)C(=O)Nc1ccc(C)c(C)c1", "CAKI-1", "> 100 µM (inactive)"),
    ("COc1ccc(C(N)=O)cc1/N=N/N(C)C", "CAKI-1", "> 100 µM (inactive)"),
    ("O=S(=O)(O)c1cccc2cccc(/N=N/c3c(O)ccc4ccccc34)c12", "CAKI-1", "> 100 µM (inactive)"),
]

State its GI50: `CCN(CC)CCOc1ccc(C(=C2CCCCC2)c2ccc(OCCN(CC)CC)cc2)cc1` 1.96 µM (inactive)

State its GI50: C/C=C(\C)C(=O)OC1CC(OC(C)=O)C2(C(=O)OC)COC3C2C1(C)C1C2(C(=O)OC)OCC1(C3O)C1(O)C3CC(C4(O)C=COC4O3)C1(C)O2 (stereo unspecified) > 100 µM (inactive)

State its GI50: CC(C)c1ccc(/C=C2\CSCC3=C2N=C2SCC(=O)N2C3c2ccc(C(C)C)cc2)cc1 (stereo unspecified) > 100 µM (inactive)

State its GI50: `COc1cc(/C=C2\N=C(c3ccccc3)N(c3nc4cc(C)c(C)cc4s3)C2=O)ccc1O` 36.6 µM (inactive)

State its GI50: CC(Sc1ccccc1)C(CO)(CO)[N+](=O)[O-] (stereo unspecified) 17.9 µM (inactive)

State its GI50: `Cc1cnoc1/N=C1\C=C(Nc2oncc2C)C(=O)c2ccccc21` > 100 µM (inactive)

State its GI50: COc1cc2c(cc1OC)C(C(=O)O)C(c1ccccc1)N(C)C2=O (stereo unspecified) > 100 µM (inactive)

State its GI50: Cn1cc(NC(=O)c2cc(NC(=O)CNC(=N)N)cn2C)cc1C(=O)NCCC(=N)N [NETROPSIN CHLORIDE] > 100 µM (inactive)

State its GI50: OC(c1cc2ccccc2[nH]1)C(O)(c1cc2ccccc2[nH]1)c1cc2ccccc2[nH]1 (stereo unspecified) 19.9 µM (inactive)

====

# Test system: Hs-578T
# assay.protocol: NCI tumour cell line growth inhibition, 48 h
The source made the active and inactive calls. Cut-off read from the data, not from the text of the source: active = GI50 up to about 1.1 µM and inactive = higher.
Log the outcome using a class from active, inactive

Answered cases to consult:
# molecule, discrete.label
measured = [
    ("CCN(CC)CCNc1n[n+]([O-])c2cc([N+](=O)[O-])ccc2[n+]1[O-]", "inactive"),
    ("C/C(=C/CC[C@](C)(OC1OC(CO)C(O)C(O)C1O)[C@H]1CC[C@]2(C)[C@@H]1CC[C@@H]1[C@@]3(C)CC[C@H](O)C(C)(C)[C@@H]3C[C@H](O)[C@]12CO)CO (stereo not given in full)", "inactive"),
    ("Cc1c(C)c(C)c(CC2(C)CSC2)c(CC2(C)CSC2)c1C", "inactive"),
    ("CC(C)(C)c1cc(/C=C(\\C#N)C2=NCCO2)cc(C(C)(C)C)c1O", "inactive"),
    ("C=CC(OC(C)=O)c1ccc(OC(=O)C(C)C)c(OC)c1 (stereo not given)", "inactive"),
    ("CC(=O)OCc1cncn1S(=O)(=O)c1ccc(C)cc1", "inactive"),
    ("COc1cc(/C=C2\\N=C(c3ccccc3)N(c3nc4cc(C)c(C)cc4s3)C2=O)ccc1O", "inactive"),
    ("COC(=O)[C@H]1CO[C@@H](C(C)(C)C)N1C(=O)N1C=CC(=O)C[C@@H]1C", "inactive"),
    ("COc1cc(C2SC(C)C(=O)N2c2ccc(-c3csc(NS(=O)(=O)c4ccc(Cl)c(OC)c4)n3)cc2)ccc1O (stereo not given)", "inactive"),
    ("O=C1/C(=C/c2cccc3ccccc23)CCc2ccc([N+](=O)[O-])cc21", "inactive"),
]

Record request — test call for `CCOC(=O)CCN1C(=O)c2c(NC(=O)C(=O)O)cccc2S1(=O)=O` inactive

Record request — test call for `COC(=O)[C@H]1[C@@H](C(C)C)O[C@@H](C(C)C)O[C@H]1C(F)(F)F` inactive

====

# Test system: MOLT-4
# assay.protocol: NCI tumour cell line growth inhibition, 48 h
Calls of active or inactive are those of the source. Cut-off read from the data, not from the text of the source: active = GI50 up to about 1.1 µM and inactive = higher.
measurement.label: GI50

In the examples that follow, each entry is paired with its recorded GI50.
# compound, GI50
rows = [
    ("CN(C)c1ccc(Cc2cc(C(C)(C)C)cc(C(C)(C)C)c2O)cc1", "14.5 µM (inactive)"),
    ("Cc1ccc(Nc2c3c(c(C#N)c4nc5ccccc5n24)CCCC3)cc1", "3.73 µM (inactive)"),
    ("COC(=O)C1=C(c2ccc3c(c2)OCO3)O[C@H](c2cc(OC)c(OC)c(OC)c2)[C@H]1COC(C)=O", "3.03 µM (inactive)"),
]

State its GI50: COC(=O)[C@]1(c2cc3ccccc3[nH]2)CC2CN(C(=O)OCc3ccccc3)C1CC2=O (stereo not given in full) 15 µM (inactive)

State its GI50: `Cc1occc1C(=S)Nc1ccc(Cl)c(/C=N/OC(C)(C)C)c1` 9.51 µM (inactive)

====

Recorded GI50, one value per entry.
# Tested on: OVCAR-4
# assay.protocol: NCI tumour cell line growth inhibition, 48 h
Active and inactive are the calls of the source. Rule as the data show it: active = GI50 up to about 1.1 µM and inactive = higher.

In the examples that follow, each entry is paired with its recorded GI50.
# compound, measurement.label, recorded.value
data = [
    ("CCCCCCCCCCCCCCCCCCOCC(O)COP(=O)(O)OCC1OC(n2ccc(N)nc2=O)C(O)C1O (stereo not given)", "GI50", "28.3 µM (inactive)"),
    ("Cc1c(/C=N/NC(=O)c2ccc(Cl)cc2)c(=O)n(-c2ccccc2)n1C", "GI50", "> 100 µM (inactive)"),
    ("O=C1C(c2c(O)[nH]c3ccc(Cl)cc23)=Nc2ccccc21", "GI50", "2.2 µM (inactive)"),
    ("C/C(CCn1[nH]c(=O)ccc1=O)=N\\Nc1ccc([N+](=O)[O-])cc1[N+](=O)[O-]", "GI50", "> 100 µM (inactive)"),
    ("CCCCSN1C(=O)c2ccccc2C1=S", "GI50", "76.6 µM (inactive)"),
]

State its GI50: CCN(CC)C1CC(n2cc(C)c(=O)[nH]c2=O)OC1CO (stereo not given) > 100 µM (inactive)

State its GI50: `Oc1cc(-c2ccc3ccccc3c2)nc2ncc(Cl)cc12` 6.43 µM (inactive)

State its GI50: `COc1ccc(CSCc2cc(OC)c(OC)c(OC)c2)cc1` > 100 µM (inactive)

State its GI50: COc1cc(C2SC(C)C(=O)N2c2ccc(-c3csc(NS(=O)(=O)c4ccc(Cl)c(OC)c4)n3)cc2)ccc1O (stereo not given) 26.3 µM (inactive)

State its GI50: O=C1C2C(C(=O)N1c1ccccc1)C1(c3ccccc3)CCC2(C(=O)c2ccccc2)O1 (stereo not given) > 10 µM (inactive)

State its GI50: `CCCCOc1c(C(=O)O)cc(Br)cc1C(=O)O` > 100 µM (inactive)

State its GI50: `CCOC(=O)CCN1C(=O)c2c(NC(=O)C(=O)O)cccc2S1(=O)=O` > 100 µM (inactive)

State its GI50: `CN(/N=C/c1cccc2cccnc12)c1c([N+](=O)[O-])cc([N+](=O)[O-])cc1[N+](=O)[O-]` > 100 µM (inactive)

State its GI50: CC1=C2C(O)C(C(C)C(=O)N(C)C)CCC2(C)C=CC1=O (stereo not given) > 100 µM (inactive)

State its GI50: `CC1=N/C(=C\c2ccc(N)cc2)C(=O)N1Nc1nnc(NN2C(=O)/C(=C/c3ccc(N)cc3)N=C2C)c2ccccc12` 33 µM (inactive)

====

# Test system: SW-620
# assay.protocol: NCI tumour cell line growth inhibition, 48 h
Activity calls are given as the source filed them. Rule as the data show it: active = GI50 up to about 1.1 µM and inactive = higher.
measurement.label: GI50

In the examples that follow, each entry is paired with its recorded GI50.
# compound, GI50
measured = [
    ("CC(=O)O[C@]1(C)OC(=O)[C@@H](C)N1[N+](=O)[O-]", "> 100 µM (inactive)"),
    ("CC(=O)OC1CC[C@@]2(C)C(CC[C@]3(C)C2CC=C2[C@@H]4CC(C)(C)CCC4(C)CCC23C)[C@@]1(C)C(=O)O (stereo not given in full)", "13.5 µM (inactive)"),
    ("CN(/N=C/c1cccc2cccnc12)c1c([N+](=O)[O-])cc([N+](=O)[O-])cc1[N+](=O)[O-]", "> 100 µM (inactive)"),
]

State its GI50: `O=C(NN1C(=O)c2ccccc2C1=O)c1ccccc1Nc1ccccc1C(=O)NN1C(=O)c2ccccc2C1=O` > 100 µM (inactive)

Data provenance is ChEMBL document CHEMBL1201862.
